system: PXR:RXRa (NR concentration 270 nM, RXRa partner concentration 90 nM); test: PBM binding z-score (relative to random genomic background probes); higher = stronger binding; sequences stand for … in GC…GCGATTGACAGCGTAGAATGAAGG
endpointName: PBM binding z-score

sequencechain=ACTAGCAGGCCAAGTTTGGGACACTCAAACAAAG endpointname="PBM binding z-score" endpointresult=-0.655
sequencechain=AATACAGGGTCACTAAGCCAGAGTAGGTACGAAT endpointname="PBM binding z-score" endpointresult=3.23
sequencechain=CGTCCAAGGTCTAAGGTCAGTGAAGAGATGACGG endpointname="PBM binding z-score" endpointresult=2.21
sequencechain=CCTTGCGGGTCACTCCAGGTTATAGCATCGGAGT endpointname="PBM binding z-score" endpointresult=4.59
sequencechain=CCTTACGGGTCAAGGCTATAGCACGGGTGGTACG endpointname="PBM binding z-score" endpointresult=2.58
sequencechain=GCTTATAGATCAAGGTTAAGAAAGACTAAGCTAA endpointname="PBM binding z-score" endpointresult=0.457
sequencechain=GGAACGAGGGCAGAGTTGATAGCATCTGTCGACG endpointname="PBM binding z-score" endpointresult=-0.0229
sequencechain=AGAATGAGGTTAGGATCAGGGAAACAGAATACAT endpointname="PBM binding z-score" endpointresult=0.668
sequencechain=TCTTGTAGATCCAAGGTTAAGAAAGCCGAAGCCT endpointname="PBM binding z-score" endpointresult=0.966
sequencechain=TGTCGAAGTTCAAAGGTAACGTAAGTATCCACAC endpointname="PBM binding z-score" endpointresult=4.12
sequencechain=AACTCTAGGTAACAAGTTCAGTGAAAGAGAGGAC endpointname="PBM binding z-score" endpointresult=1.37
sequencechain=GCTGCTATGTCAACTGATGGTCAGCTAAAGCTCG endpointname="PBM binding z-score" endpointresult=-0.32
sequencechain=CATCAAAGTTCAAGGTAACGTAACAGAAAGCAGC endpointname="PBM binding z-score" endpointresult=4.19
sequencechain=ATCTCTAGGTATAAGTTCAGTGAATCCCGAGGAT endpointname="PBM binding z-score" endpointresult=1.44
sequencechain=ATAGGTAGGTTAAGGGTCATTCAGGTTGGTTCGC endpointname="PBM binding z-score" endpointresult=5.63
sequencechain=GCTCGCAGGCCATTTGGGTCACTCAATGACGGGC endpointname="PBM binding z-score" endpointresult=0.621
sequencechain=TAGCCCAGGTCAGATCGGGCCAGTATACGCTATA endpointname="PBM binding z-score" endpointresult=1.48
sequencechain=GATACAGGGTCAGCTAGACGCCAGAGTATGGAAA endpointname="PBM binding z-score" endpointresult=1.76
sequencechain=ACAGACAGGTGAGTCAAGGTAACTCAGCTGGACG endpointname="PBM binding z-score" endpointresult=0.238
sequencechain=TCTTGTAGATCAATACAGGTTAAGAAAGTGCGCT endpointname="PBM binding z-score" endpointresult=1.76
sequencechain=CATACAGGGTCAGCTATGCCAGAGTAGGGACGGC endpointname="PBM binding z-score" endpointresult=2.18
sequencechain=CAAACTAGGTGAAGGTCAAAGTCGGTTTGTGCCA endpointname="PBM binding z-score" endpointresult=3.95
sequencechain=CTCGAAACGTCGTGCTCAGGTGAGTATACCAAAC endpointname="PBM binding z-score" endpointresult=-0.468
sequencechain=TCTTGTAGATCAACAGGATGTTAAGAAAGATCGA endpointname="PBM binding z-score" endpointresult=0.147
sequencechain=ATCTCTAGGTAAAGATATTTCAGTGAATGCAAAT endpointname="PBM binding z-score" endpointresult=0.367
sequencechain=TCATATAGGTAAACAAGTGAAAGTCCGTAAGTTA endpointname="PBM binding z-score" endpointresult=0.871
sequencechain=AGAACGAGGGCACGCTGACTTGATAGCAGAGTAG endpointname="PBM binding z-score" endpointresult=0.461
sequencechain=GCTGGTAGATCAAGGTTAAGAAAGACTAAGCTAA endpointname="PBM binding z-score" endpointresult=0.348
sequencechain=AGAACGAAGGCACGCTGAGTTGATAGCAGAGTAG endpointname="PBM binding z-score" endpointresult=-0.449
sequencechain=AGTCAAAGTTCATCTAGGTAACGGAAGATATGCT endpointname="PBM binding z-score" endpointresult=5.42
sequencechain=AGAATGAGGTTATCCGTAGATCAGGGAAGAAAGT endpointname="PBM binding z-score" endpointresult=1.17
sequencechain=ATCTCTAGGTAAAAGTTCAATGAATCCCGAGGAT endpointname="PBM binding z-score" endpointresult=3.09
sequencechain=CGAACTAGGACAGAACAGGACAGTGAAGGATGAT endpointname="PBM binding z-score" endpointresult=-0.366
sequencechain=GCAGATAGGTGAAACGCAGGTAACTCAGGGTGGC endpointname="PBM binding z-score" endpointresult=-0.335
sequencechain=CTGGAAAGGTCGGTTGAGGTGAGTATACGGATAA endpointname="PBM binding z-score" endpointresult=3.21
sequencechain=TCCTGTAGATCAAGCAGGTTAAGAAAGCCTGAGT endpointname="PBM binding z-score" endpointresult=0.372
sequencechain=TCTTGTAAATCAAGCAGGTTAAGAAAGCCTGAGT endpointname="PBM binding z-score" endpointresult=0.678
sequencechain=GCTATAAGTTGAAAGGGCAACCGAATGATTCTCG endpointname="PBM binding z-score" endpointresult=1.41
sequencechain=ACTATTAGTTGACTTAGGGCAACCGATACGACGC endpointname="PBM binding z-score" endpointresult=0.217
sequencechain=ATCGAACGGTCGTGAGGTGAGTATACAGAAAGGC endpointname="PBM binding z-score" endpointresult=0.0108
sequencechain=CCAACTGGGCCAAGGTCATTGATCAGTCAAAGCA endpointname="PBM binding z-score" endpointresult=3.11
sequencechain=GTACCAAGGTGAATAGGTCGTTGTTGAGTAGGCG endpointname="PBM binding z-score" endpointresult=0.708
sequencechain=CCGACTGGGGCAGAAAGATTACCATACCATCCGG endpointname="PBM binding z-score" endpointresult=-0.737
sequencechain=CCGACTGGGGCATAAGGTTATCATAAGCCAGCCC endpointname="PBM binding z-score" endpointresult=0.386
sequencechain=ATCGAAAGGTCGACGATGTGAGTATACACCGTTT endpointname="PBM binding z-score" endpointresult=2.29
sequencechain=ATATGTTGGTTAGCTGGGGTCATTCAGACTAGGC endpointname="PBM binding z-score" endpointresult=5.64
sequencechain=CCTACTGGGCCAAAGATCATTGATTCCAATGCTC endpointname="PBM binding z-score" endpointresult=-0.408
sequencechain=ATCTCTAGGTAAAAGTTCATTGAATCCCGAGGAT endpointname="PBM binding z-score" endpointresult=3.67
sequencechain=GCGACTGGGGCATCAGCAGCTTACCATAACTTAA endpointname="PBM binding z-score" endpointresult=-0.462
sequencechain=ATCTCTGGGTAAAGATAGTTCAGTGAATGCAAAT endpointname="PBM binding z-score" endpointresult=1.17
sequencechain=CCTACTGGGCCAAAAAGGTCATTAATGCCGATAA endpointname="PBM binding z-score" endpointresult=4.39
